- Assay text: protein stability index of a GFP-peptide fusion (GPS, HEK-293T) (PSI 1-6); higher = more stable;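 note: 24-mer peptide tiles fused after GFP, lentivirally expressed, FACS-sorted into six equal bins by GFP/DsRed ratio, decoded by Illumina sequencing, PSI is the read-weighted mean bin number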
- Experimental context: treatment: DMSO; c terminus: a fixed tail appended
Measurement kind: protein stability index
Enter the number alone.

Worked cases, protein stability index given:
Sequence record	protein stability index
TAAGLMHTFNAHAATDITGFGILG [SEPHS2]	2.43
GSLGSRAEPAPRAREGGGCGRSEV [SMAD6]	4.84
QIITVTVQTGLDQYQQVPVEIVKS [IQUB]	2.32
KKAEKKLEENPYDLDAWSILIREA [CSTF3]	3.19
HKRPHVDFFLEVVSQWYELVVFTA [CTDNEP1]	3.06

Prompt: Fill in the blank: the reported protein stability index of QVHRQGERRRELVRSQTLPRTSEA [SMTNL2] is ____.
Completion: 4.96

Prompt: Fill in the blank: the reported protein stability index of KWDAENAIQQMGGQWLGGRQIRTN [TIA1] is ____.
Completion: 3.51

Prompt: Fill in the blank: the reported protein stability index of KLLQGEEERLKLSPSPSSRVTVSR [LMNB1] is ____.
Completion: 4.13

Prompt: Fill in the blank: the reported protein stability index of SNPGPVPGSSSGPVLGSSSGAGHG [SPAG8] is ____.
Completion: 5.05

Prompt: Fill in the blank: the reported protein stability index of EKQELHRNMLGLLGNVAEVKELRP [ZER1] is ____.
Completion: 3.74

Prompt: Fill in the blank: the reported protein stability index of RDKAEELLQLPDTKVGSFMIRESE [SLA] is ____.
Completion: 4.66

Prompt: Fill in the blank: the reported protein stability index of LPGWEDIESKIPLNMEEPPVEEPE [SLC19A2] is ____.
Completion: 5.51

Prompt: Fill in the blank: the reported protein stability index of IQSWDINSRRNINYRSFEPILRLL [ZER1] is ____.
Completion: 2.31

Prompt: Fill in the blank: the reported protein stability index of RVFSQGSHAWEVALGGLQSWRVGV [TRIM35] is ____.
Completion: 2.46

Prompt: Fill in the blank: the reported protein stability index of VIDGATALWCAAGAGHFEVVKLLV [FEM1B] is ____.
Completion: 2.49

Prompt: Fill in the blank: the reported protein stability index of NDINILRVSNPGRLAELLLLETDA [GADD45A] is ____.
Completion: 2.31

----------
- Assay text: protein stability index of a GFP-peptide fusion (GPS, HEK-293T) (PSI 1-6); higher = more stable
- Experimental context: treatment: MLN4924 1 uM, 8 h; c terminus: a fixed tail appended
Measurement kind: protein stability index
Enter the number alone.

Worked cases, protein stability index given:
Sequence record	protein stability index
SFIITLGCNSVLIQFATPNDFCSF [CARM1]	2.75
NAKLAADDFRTKYQTEQSLRQLVE [KRT33B]	3.48
RDLKLCRFVFADRERKKLVLENLE [TRIB3]	2.51
PHVALAVRYNRVGILRRILRTLRD [ANKRD9]	2.84

Next up:
Prompt: Fill in the blank: the reported protein stability index of QQLLHHARNGNAEEVRQLLETMAR [OSBPL1A] is ____.
Completion: 3.78

----------
- Assay text: protein stability index of a GFP-peptide fusion (GPS, HEK-293T) (PSI 1-6); higher = more stable
- Experimental context: treatment: MLN4924 1 uM, 8 h; c terminus: a fixed tail appended
Measurement kind: protein stability index

Worked cases, protein stability index given:
Sequence record	Measurement kind	Test result
EHPFLVNLWYSFQDEEDMFMVVDL [STK32A]	protein stability index	2.63
PQQYMAFLPHHIMVKIFRLLPTKS [FBXO34]	protein stability index	2.07

Prompt: Fill in the blank: the reported protein stability index of QKENVFKCDSLKEECIPEHMVRES [FAN1] is ____.
Completion: 4.56
